Assay Procedure: Selectivity Index, ratio of IC50 for African green monkey Vero cells to IC50 for chloroquine-resistant Plasmodium falciparum W2
Type: toxicity
Assay Setup: read-out: Ratio IC50
Measurement Kind: selectivity ratio

1) CCOC(=O)C1Cc2c([nH]c3ccccc23)CN1Cc1cn(CCCNc2ccnc3cc(Cl)ccc23)nn1 (centres undefined)
496
2) CCOC(=O)C1Cc2c([nH]c3ccccc23)CN1Cc1cn(CCNc2ccnc3cc(Cl)ccc23)nn1 (centres undefined)
312
3) C[C@H]1NC(C(=O)NNC(=O)c2ccc(Nc3ccnc4cc(Cl)ccc34)cc2)Cc2c1[nH]c1ccccc21 (some centres undefined)
84.9
4) O=C(NNC(=O)C1Cc2c([nH]c3ccccc23)CN1)c1ccc(Nc2ccnc3cc(Cl)ccc23)cc1 (centres undefined)
156

====

# Lookup of reported IC50 keyed by entry
System: Vero
Assay Procedure: Cytotoxicity against African green monkey Vero cells assessed as reduction in cell viability
Format: cell-based
Assay Setup: Chlorocebus sabaeus
Measurement Kind: IC50 (µM)

1) CCOC(=O)C1Cc2c([nH]c3ccccc23)CN1Cc1cn(CCCNc2ccnc3cc(Cl)ccc23)nn1 (centres undefined)
246
2) O=C(NNC(=O)C1Cc2c([nH]c3ccccc23)CN1)c1ccc(Nc2ccnc3cc(Cl)ccc23)cc1 (centres undefined)
95.1
3) C[C@H]1NC(C(=O)NNC(=O)c2ccc(Nc3ccnc4cc(Cl)ccc34)cc2)Cc2c1[nH]c1ccccc21 (some centres undefined)
103
4) CCOC(=O)C1Cc2c([nH]c3ccccc23)CN1Cc1cn(CCNc2ccnc3cc(Cl)ccc23)nn1 (centres undefined)
268

Sourced from ChEMBL document CHEMBL4613217
